Compiled notes: published IC50 values involving Focal adhesion kinase 1 (Homo sapiens).

Worked set:
COc1cc(-n2cc(C)nc2C)ccc1Nc1nc2c(c(Nc3ccccc3S(=O)(=O)NC(C)C)n1)CCN2 ... < 20 nM
CNC(=O)c1ccc(Nc2ncc(C(F)(F)F)c(NCc3cccnc3N(C)S(C)(=O)=O)n2)cc1C ... < 0.595 nM
COc1cc(Cc2c[nH]c3ncc(Br)cc23)c(F)cc1OCc1nc2ccccc2[nH]1 ... ≤ 10000 nM

[Q] Specify the recorded IC50 for CNC(=O)c1ccccc1Nc1nc(Nc2ccc(N3CCOCC3)cc2OC)nc2c1C1(CC1)CN2 , system: Focal adhesion kinase 1 (Homo sapiens).
[A] < 50 nM

[Q] Specify the recorded IC50 for CCCNS(=O)(=O)c1ccccc1Nc1nc(Nc2ccc(N3CCOCC3)cc2OC)nc2c1C(C)(C)CN2 , system: Focal adhesion kinase 1 (Homo sapiens).
[A] < 20 nM
